These data points were gathered from patent US10597674B2.

- Test system: HPPD polypeptides (wild-type SEQ ID NO:1 and mutants)
- CONDITION_NOTES: total change in signal in presence of 50 μM Cmpd. 1, normalised to that without inhibitor; low substrate concentration
MEASUREMENT_TYPE: Residual turnover (%)

# MOLECULE, RECORDED_RESULT
records = [
    ("39 (protein, mutant HPPD polypeptide) MADLYENPMGLMGFEFIEFASPTPGTLEPIFEIMGFTKVATHRSKNVHLYRQGEINLILNNEPNSIASYFAAEHGPSVCGMAFRVKDSQKAYNRALELGAQPIHIDTGPMELNLPAIKGIGGAPLYLIDRFGEGSSIYDIDFVYLEGVERNPVGAGLKVIDHLTHNVYRGRMVYWANFYEKLFNFREARYFDIKGEYTGLTSKLMSAPDGMIRIPLNEESSKGAGQIEEFLMQFNGEGIQHVAFLTDDLVKTWDALKKIGMRFMTAPGDEYYEMLEGRLPDHGEPVDQLQARGILLDGSSVEGDKRLLLQIFSETLMGPVFFEFIQRKGDDGFGPDSFKVLFESVERDQVRRGVLTAD", 61),
    ("72 (protein, mutant HPPD polypeptide) MADLYENPMGLMGFEFIEFASPTPGTLEPIFEIMGFTKVATHRSKNVHLYRQGEINLILNNEPNSIASYFAAEHGPSVCGMAFRVKDSQKAYNRALELGAQPIHIDTGPMELNLPAIKGIGGAPLYLIDRFGEGSSIYDIDFVYLEGVERNPVGAGLKVIDHLTHNVYRGRMVYWANFYEKLFNFREARYFDIKGEYTGLTSKAMSAPDGMIRIPLNEESSKGAGQIEEFLMQFNGEGIQHVAFLTDDLVKTWDALKKIGMRFMTAPRDEYYEMLEGRLPDHGEPVDQLQARGILLDGSSVEGDKRLLLQIFSETLMGPVFFEFIQRKGDDGFGPDSFKVLFESVERDQVRRGVLTAD", 55),
]
